Origin of values: the Human Domainome abundance scans (Beltran et al. 2025)

B1: 3'-5' exoribonuclease 1, residues 65 to 114; numbered along this chain, Q8IV48 (parent)
chain: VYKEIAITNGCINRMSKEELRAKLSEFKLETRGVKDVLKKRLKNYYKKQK

Variants of: B1
experiment_description: abundance fitness (aPCA) (normalised: wild type 0, dead -1); higher = more abundant; growth selection in yeast, the domain comes from the species named
condition_context: Homo sapiens
Would you please tag the item t when its abundance fitness is -0.2 or above, and f when it is below?

mutation_list	category_label
G33N	f
G10C	f
R21F	f
L38Q	f

Quick check: does L24E have abundance fitness greater than or equal to -0.2?
f
